Test system: human hepatocellular carcinoma cell line HepG-2
Assay procedure: MTT assay, inhibition of tumor cell growth (HepG2)
Type: cell-based
Measurement conditions: 72 hours incubation, read-out: IC50 on the tumor cells HepG2
Reported property: IC50 (µM)

Study these solved cases before continuing.
CCN1C(=O)C(=C2Oc3ccccc3C2=O)c2cc(F)ccc21 | 17
CN1C(=O)C(=C2Oc3ccccc3C2=O)c2cnccc21 | 11.5
O=C1Oc2ccccc2C1=C1C(=O)N(Cc2ccccc2)c2ccncc21 | 26

[I] COc1ccc2c(c1)C(=C1C(=O)N(Cc3ccccc3)c3ccccc31)C(=O)O2
[II] CC(C)N1C(=O)C(=C2Oc3ccccc3C2=NO)c2cc(Cl)ccc21 [Compound 47]
[III] CCN1C(=O)C(=C2Oc3ccccc3C2=NO)c2cc(F)ccc21
[IV] CC(C)N1C(=O)C(=C2C(=O)Oc3ccccc32)c2ccccc21
[V] O=C1Nc2ccc(F)cc2C1=C1C(=O)Oc2ccccc21
**Q:** List the 5 entries from lowest IC50 to highest IC50 value. Use the labels to give the requested order.
**A:** II, IV, I, V, III
